Origin of measurements: patent US20090131481A1

Consider the following compounds; for each one, report its pEC50.
target: LcrF (VirF) (Yersinia pestis, UniProt P28808); assay: biochemical; type: binding, Y. pseudotuberculosis; conditions: EC50 for inhibition of LcrF(VirF)-DNA binding
Sequence (P28808 whole entry, looked up): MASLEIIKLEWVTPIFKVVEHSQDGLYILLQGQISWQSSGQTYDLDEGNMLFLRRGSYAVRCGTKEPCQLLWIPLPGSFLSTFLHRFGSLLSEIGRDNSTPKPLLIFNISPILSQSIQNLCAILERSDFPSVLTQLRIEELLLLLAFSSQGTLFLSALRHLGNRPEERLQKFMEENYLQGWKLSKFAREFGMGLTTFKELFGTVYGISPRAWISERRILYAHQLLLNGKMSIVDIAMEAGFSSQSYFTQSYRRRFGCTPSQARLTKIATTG
pEC50: −log10 of the molar value.

Example entries begin here.
[[record]]
structure_as_smiles = "O=C(Nc1ccc(-c2nc3ccc([N+](=O)[O-])cc3n2O)cc1)c1ccc(F)cc1"
measured_endpoint = "pEC50"
result = "4.60 to 5.00"

[[record]]
structure_as_smiles = "O=C(Nc1ccc(-c2nc3ccc([N+](=O)[O-])cc3n2O)cc1)c1ccc(F)c(F)c1"
measured_endpoint = "pEC50"
result = "4.60 to 5.00"


Quick one: give me pEC50 for each item below, same order please.
1. O=C(/C=C/c1ccccc1)Nc1ccc(-c2nc3ccc([N+](=O)O)cc3n2O)cc1
2. COc1cc(NC(=O)c2ccc(F)cc2)ccc1-c1nc2ccc([N+](=O)[O-])cc2n1O
3. Cc1cc2nc(-c3ccc(NC(=O)c4ccc(-c5cnco5)cc4)cc3)n(O)c2cc1[N+](=O)[O-]

# output
["> 5.00", "< 4.60", "< 4.60"]
